Each entry below carries its reported composite z-score.
- assay_details: small-molecule microarray binders of probe aShh, primary screen, biochemical, biotinylated probe, 635/667 nm fluorescence (AID 1114);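 also: probe is biotin-labelled aShh protein from a stem cell growth factor screen; measures binding of labelled protein to compounds printed on the slide; score merges feature fluorescence at 667 nm with signal-to-noise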
- condition_set: higher = more signal
Reply with just the number.

Consider the worked cases shown below.
[
  {
    "molecule": "C=C(COC)C(=O)CC[C@H](OC(=O)c1cccnc1)c1cccc(OCCO)c1",
    "composite z-score": 0.841
  },
  {
    "molecule": "CC(CO)N1C(=O)[C@@H]2C3C(=O)OCCC/C=C\\[C@H]3OC23C=CCN(Cc2ccccc2)C(=O)[C@@H]13 (some centres not stated)",
    "composite z-score": -0.0769
  },
  {
    "molecule": "C=CCNC(=O)[C@@H]1[C@H]2C(=O)O[C@H](c3ccccc3)[C@H](c3ccccc3)N2[C@H](c2ccc(O)cc2)[C@@]12C(=O)Nc1ccc(C#Cc3ccc(OC)cc3)cc12",
    "composite z-score": 1.03
  },
  {
    "molecule": "CC(C)(C)OC(=O)CC[C@]1(C(=O)NCc2ccccc2)N=C(c2ccc(OCCCO)cc2)O[C@H]1c1ccccc1N=[N+]=[N-]",
    "composite z-score": 0.57
  }
]

For this molecule ( C=C(/C(=C/C[C@H](OC(C)=O)c1cccc(OCCO)c1)c1cc(C(=O)OC)ccc1OC)C(C)C ), measured composite z-score is -0.0337

Looking up COc1ccc([Si](C)(C)[C@H]2[C@H](CC(=O)N(CCO)Cc3ccccc3)O[C@@]3(C(=O)N(Cc4ccc(N5CCOC5=O)cc4)c4ccccc43)[C@@H]2C)cc1 , I see its composite z-score listed as 0.493

Note to self: composite z-score recorded for CC(C)C(=C=CC[C@H](O)c1ccc(OCCO)cc1)C[C@H](O)COCc1ccccc1 was 0.0469

----------
- System: Inhibin beta A chain (activin A)
- assay_details: INHBA (activin A) binders on microarrays, primary screen, biochemical, small-molecule microarray, 635 nm fluorescence scan (AID 1107);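 also: mouse activin A protein probed at 4.33 µg/mL on printed slides; score merges bound-protein fluorescence near 667 nm with spot signal-to-noise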
- condition_set: small-molecule microarray binding, higher = more signal
measurement_type: composite z-score
Respond with the number and no other words.

A selection of reference data follows.
[
  {
    "compound": "COCCCNC(=O)[C@@]1(Cc2ccccc2CN=[N+]=[N-])COC(c2ccc(OCCCO)cc2)=N1",
    "assay_value": 0.731
  },
  {
    "compound": "Cc1ccc(S[C@]2(C(=O)NCCN3CCOCC3)CC(=O)N(Cc3cc(C(F)(F)F)cc(C(F)(F)F)c3)[C@@H]2c2ccc(CO)cc2)cc1",
    "assay_value": 0.156
  },
  {
    "compound": "COC(=O)C1=CC(CCCO)=CC(C2CC2)N(Cc2cc3c(cc2Br)OCO3)C=C1C(=O)OC (centres undefined)",
    "assay_value": 0.945
  },
  {
    "compound": "C#CCN1C(C(=O)OCC)OC[C@H]1c1ccccc1 (some centres undefined)",
    "assay_value": -0.352
  },
  {
    "compound": "O=C(N1CCCCC1)[C@@]1(Cc2ccccc2)N=C(c2ccc(OCCCO)cc2)O[C@H]1c1ccccc1",
    "assay_value": 0.766
  },
  {
    "compound": "C=CC[C@]1(C(=O)N2CCCCC2)COC(c2ccc(OCCCO)cc2)=N1",
    "assay_value": 1.28
  },
  {
    "compound": "C=CCC(OC(C)=O)[C@@H]1[C@@H](N(Cc2ccc(-c3ccccc3)cc2)C(=O)c2ccc(-c3ccccc3)cc2)c2cc(OCCCO)ccc2N1C(=O)c1ccc(-c2ccccc2)cc1 (some centres undefined)",
    "assay_value": 1.11
  },
  {
    "compound": "C=C(CCCC)/C(=C/C[C@@H](OC(=O)c1ccncc1)c1ccc(OCCO)cc1)c1cnc2ccccc2c1",
    "assay_value": 1.8
  }
]

Query C=CCNC(=O)[C@@H]1[C@H]2C(=O)O[C@H](c3ccccc3)[C@H](c3ccccc3)N2[C@H](c2ccc(O)cc2)[C@@]12C(=O)N(C(=O)OCCOC)c1ccc(C#Cc3ccc(OC)cc3)cc12 on Inhibin beta A chain (activin A); composite z-score returned: -0.071

composite z-score value, target or system Inhibin beta A chain (activin A), for COc1ccc(C#Cc2ccc3c(c2)[C@]2(C(=O)N3)[C@H](c3ccc(O)cc3)N3[C@H](c4ccccc4)[C@H](c4ccccc4)OC(=O)[C@H]3[C@@H]2C(=O)N2CCN(c3ncccn3)CC2)cc1 : 0.0381

Entry CC(C)NC(=O)[C@@H]1c2ccccc2C(=O)N(Cc2cc(F)cc(C(F)(F)F)c2)[C@H]1c1ccc(CO)cc1 under Inhibin beta A chain (activin A) had composite z-score of -0.476

Form field composite z-score for item C=CCN1C(=O)[C@@]2(O[C@@H](CCO)[C@H]([Si](C)(C)c3ccc(OC)cc3)[C@H]2C)c2cc(N(C=O)c3ccccc3)ccc21 on Inhibin beta A chain (activin A): 1.01

The compound CN1C=C(C(=O)OCCS(C)(=O)=O)C(C(=O)OCCS(C)(=O)=O)=CC(CCCO)=CC1c1cccs1 (centres undefined) , tested on Inhibin beta A chain (activin A), showed composite z-score of -0.558

Measured on Inhibin beta A chain (activin A), COCCOC(=O)N1C(=O)[C@@]2(c3cc(C#CCNC(N)=O)ccc31)[C@H](C(=O)NC[C@H](O)c1ccccc1)[C@H]1C(=O)O[C@H](c3ccccc3)[C@H](c3ccccc3)N1[C@@H]2c1ccc(O)cc1 has a documented composite z-score of 0.7
